# procedure summary: chemical genetic growth profiling, strain panel (AID 1159580);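 note: tested at 20 µM; growth read once vehicle control cultures reached saturation at 30 °C; 1 = growth at the plate median or of vehicle wells; lower values mean less growth of the strain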
# reported conditions: S. cerevisiae deletion strains, growth OD, locus YOR119C, strain RIO1, active compounds read low
Hit rate of the full screen: of about 5,500 compounds, about 2,000 (36%) were called active. Another 18% or so got no clear call; they are omitted. Some of the results follow.

| mol | normalized growth |
| --- | --- |
| O=[N+]([O-])c1ccc(NCc2ccc(Cl)c(Cl)c2)nc1 | 0.949 |
| NNC(=O)c1oc2nc(-c3ccccc3)cc(-c3ccccc3)c2c1N | 0.996 |
| O=C(OCCNc1ccc([N+](=O)[O-])cn1)c1ccc([N+](=O)[O-])o1 | 0.838 |
